pKi, Glycogen phosphorylase, muscle form (Oryctolagus cuniculus, UniProt P00489): measured values
pKi: −log10 of the molar value.
reported_property: pKi

Known results for compounds:
1. COCC(=O)N[C@@H]1O[C@H](CO)[C@@H](O)[C@H](O)[C@H]1O = 3.68
2. O=C(NC1O[C@H](CO)[C@@H](O)[C@H](O)[C@H]1O)c1ccccc1 (single isomer, unassigned) = 3.84
3. NC(=O)[C@H]1O[C@H](CO)[C@@H](O)[C@H](O)[C@H]1O = 3.43

[I] O=C(Cc1ccccc1)N[C@@H]1O[C@H](CO)[C@@H](O)[C@H](O)[C@H]1O
[II] CC(=O)N[C@]1(C(N)=O)O[C@H](CO)[C@@H](O)[C@H](O)[C@H]1O
[III] COC(=O)N[C@]1(C(N)=O)O[C@H](CO)[C@@H](O)[C@H](O)[C@H]1O
Query: Form: Sort by [pKi] Order [ ascending ] List the labels according to the requested ordering.
Result: I, II, III

---

- tested_on: Glycogen phosphorylase, muscle form (Oryctolagus cuniculus, UniProt P00489)
- Sequence (P00489 whole entry): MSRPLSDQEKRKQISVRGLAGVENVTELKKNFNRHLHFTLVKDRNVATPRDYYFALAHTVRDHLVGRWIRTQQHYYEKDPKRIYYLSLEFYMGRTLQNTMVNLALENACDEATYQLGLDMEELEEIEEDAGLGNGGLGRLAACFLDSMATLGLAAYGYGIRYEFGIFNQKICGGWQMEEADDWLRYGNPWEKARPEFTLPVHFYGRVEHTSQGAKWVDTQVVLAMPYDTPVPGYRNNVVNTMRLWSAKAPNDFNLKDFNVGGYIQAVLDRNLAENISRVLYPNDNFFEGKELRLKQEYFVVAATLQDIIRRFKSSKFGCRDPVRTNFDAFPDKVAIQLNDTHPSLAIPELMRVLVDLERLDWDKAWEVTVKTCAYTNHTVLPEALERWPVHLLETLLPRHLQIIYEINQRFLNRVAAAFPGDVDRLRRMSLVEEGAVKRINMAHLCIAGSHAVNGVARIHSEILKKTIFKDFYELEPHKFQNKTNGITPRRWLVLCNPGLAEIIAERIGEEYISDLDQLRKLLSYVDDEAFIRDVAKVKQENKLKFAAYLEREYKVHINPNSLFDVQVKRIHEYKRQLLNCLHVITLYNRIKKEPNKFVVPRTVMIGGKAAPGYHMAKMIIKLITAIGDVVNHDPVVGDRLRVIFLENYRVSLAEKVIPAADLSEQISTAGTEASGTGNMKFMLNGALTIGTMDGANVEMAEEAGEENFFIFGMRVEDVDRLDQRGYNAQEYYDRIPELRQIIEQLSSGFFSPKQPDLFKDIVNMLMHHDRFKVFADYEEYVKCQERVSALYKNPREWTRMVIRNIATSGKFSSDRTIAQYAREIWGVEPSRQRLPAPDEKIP
reported_property: IC50 (µM)

1. OC[C@H]1O[C@@H](n2cc(-c3cccc4ccccc34)nn2)[C@H](O)[C@@H](O)[C@@H]1O = 625
2. O=C(O)c1cn([C@H]2O[C@H](CO)[C@@H](O)[C@H](O)[C@H]2O)nn1 = 400
3. OC[C@H]1O[C@@H](n2cc(Cc3ccccc3)nn2)[C@H](O)[C@@H](O)[C@@H]1O = 600

[A] NOC(=O)c1cn([C@@H]2O[C@H](CO)[C@@H](O)[C@H](O)[C@H]2O)nn1
[B] COC(=O)c1cn([C@@H]2O[C@H](CO)[C@@H](O)[C@H](O)[C@H]2O)nn1
Query: Recorded IC50 values differ for A and B ; which one is higher? // output: label of the selected item
Result: B
(B: 500 µM, A: 350 µM)

---

- tested_on: Glycogen phosphorylase, muscle form (Oryctolagus cuniculus, UniProt P00489)
- experiment_summary: Inhibition of rabbit skeletal muscle glycogen phosphorylase b by Dixon plot
pKi: −log10 of the molar value.
reported_property: pKi

[A] OCc1cn([C@@H]2O[C@H](CO)[C@@H](O)[C@H](O)[C@H]2O)nn1
[B] COC(=O)N[C@]1(C(N)=O)O[C@H](CO)[C@@H](O)[C@H](O)[C@H]1O
Query: Looking at recorded values for pKi, does A or B come in lower? // output: label of the selected item
Result: A

---

- tested_on: Glycogen phosphorylase, muscle form (Oryctolagus cuniculus, UniProt P00489)
- experiment_summary: Inhibition of rabbit skeletal muscle glycogen phosphorylase b by Dixon plot
reported_property: pKi
Note on pKi: it is the negative log10 of concentration, concentration in mol/L.

Known results for compounds:
1) OC[C@H]1O[C@@H](n2cc(-c3ccc4ccccc4c3)nn2)[C@H](O)[C@@H](O)[C@@H]1O = 4.44
2) O=C(CO)N[C@@H]1O[C@H](CO)[C@@H](O)[C@H](O)[C@H]1O = 4.70

Please turn your attention to the following entry.
Query: Recorded pKi of "OC[C@H]1O[C@@H](n2cc(-c3ccccc3)nn2)[C@H](O)[C@@H](O)[C@@H]1O" , please.
Result: 3.79
